Target: T1, RESTV GP on rVSV particles (Reston virus (RESTV), UniProt Q66799 34-677)
T1 sequence: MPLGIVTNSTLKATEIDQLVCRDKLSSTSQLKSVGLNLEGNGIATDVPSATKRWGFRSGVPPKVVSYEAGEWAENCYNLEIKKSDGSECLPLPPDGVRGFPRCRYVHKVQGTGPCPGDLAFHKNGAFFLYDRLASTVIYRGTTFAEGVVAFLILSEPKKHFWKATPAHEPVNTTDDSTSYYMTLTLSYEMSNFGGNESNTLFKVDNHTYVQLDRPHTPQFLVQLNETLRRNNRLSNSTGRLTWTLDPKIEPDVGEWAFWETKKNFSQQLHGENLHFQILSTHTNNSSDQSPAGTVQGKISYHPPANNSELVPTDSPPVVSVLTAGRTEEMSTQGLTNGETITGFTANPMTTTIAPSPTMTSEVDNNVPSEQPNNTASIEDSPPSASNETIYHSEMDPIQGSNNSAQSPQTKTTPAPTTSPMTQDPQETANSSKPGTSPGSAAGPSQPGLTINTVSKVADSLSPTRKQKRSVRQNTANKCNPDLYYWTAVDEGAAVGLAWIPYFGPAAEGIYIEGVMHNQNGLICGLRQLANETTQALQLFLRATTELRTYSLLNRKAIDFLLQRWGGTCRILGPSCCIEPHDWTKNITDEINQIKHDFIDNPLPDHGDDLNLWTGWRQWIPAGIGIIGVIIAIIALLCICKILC
Experiment: cell-based or functional assay
experimentalEndpoint: IC50, half-maximal neutralization of viral infectivity (rVSV-GP) (nM)
The reply should be a number in nM, with the unit left off.

In: For PE-87 D110A (antibody, V domains shown) VH: QVQLVQSGVTLVQPGGSLRVSCAASGFTFSSYAMSWVRQAPGKGLEWVSAISGLGGSTYYADSVKGRFTISRDNSKNTLYLQMNSLRAEDTAVYYCAKDHRVWAAGYHFAYWGQGALVTVSS VL: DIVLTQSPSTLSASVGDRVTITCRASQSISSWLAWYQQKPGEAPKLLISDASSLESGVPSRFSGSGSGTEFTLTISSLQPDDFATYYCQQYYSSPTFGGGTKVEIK , what is its reported IC50, half-maximal neutralization of viral infectivity (rVSV-GP)?
Out: 0.4

In: For PE-87 V102A (antibody, V domains shown) VH: QVQLVQSGVTLVQPGGSLRVSCAASGFTFSSYAMSWVRQAPGKGLEWVSAISGLGGSTYYADSVKGRFTISRDNSKNTLYLQMNSLRAEDTAVYYCAKDHRAWAAGYHFDYWGQGALVTVSS VL: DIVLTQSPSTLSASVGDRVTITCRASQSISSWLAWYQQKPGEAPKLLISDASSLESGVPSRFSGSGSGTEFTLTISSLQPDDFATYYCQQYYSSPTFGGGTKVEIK , what is its reported IC50, half-maximal neutralization of viral infectivity (rVSV-GP)?
Out: 0.2

In: For PE-87 Y111A (antibody, V domains shown) VH: QVQLVQSGVTLVQPGGSLRVSCAASGFTFSSYAMSWVRQAPGKGLEWVSAISGLGGSTYYADSVKGRFTISRDNSKNTLYLQMNSLRAEDTAVYYCAKDHRVWAAGYHFDAWGQGALVTVSS VL: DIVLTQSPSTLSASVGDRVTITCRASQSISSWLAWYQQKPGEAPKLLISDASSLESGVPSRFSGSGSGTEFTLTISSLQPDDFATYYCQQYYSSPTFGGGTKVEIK , what is its reported IC50, half-maximal neutralization of viral infectivity (rVSV-GP)?
Out: 0.1

In: For PE-87 R101A (antibody, V domains shown) VH: QVQLVQSGVTLVQPGGSLRVSCAASGFTFSSYAMSWVRQAPGKGLEWVSAISGLGGSTYYADSVKGRFTISRDNSKNTLYLQMNSLRAEDTAVYYCAKDHAVWAAGYHFDYWGQGALVTVSS VL: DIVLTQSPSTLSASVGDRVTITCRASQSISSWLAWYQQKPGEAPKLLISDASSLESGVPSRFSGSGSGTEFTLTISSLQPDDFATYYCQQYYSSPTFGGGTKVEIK , what is its reported IC50, half-maximal neutralization of viral infectivity (rVSV-GP)?
Out: 0.2
